Assay: Human HepG2 cell viability assay in 384 well format
Type: toxicity, cell-based
Parameters: dose 125 nL, time 70.5 hour; concentration not given beside the values
Details: HepG2 cells, read-out: Inhibition
What cytotoxicity at 70.5 h was measured for each of the following?
One number for each entry, in %.

Use the examples below as a reference point.
- compound: "CC(C)n1ccc(-c2cc(C(=O)N3CCCC3)c3ccccn23)n1"
  data-value: 39.5
- compound: "Nc1c(N2CCOCC2)ncnc1N1CCOCC1"
  data-value: 0.518
- compound: "NC(=O)CCC1CCCN(c2ccc3c(Cl)ccnc3c2F)C1 (stereo unspecified)"
  data-value: -6.43
- compound: "CS(=O)(=O)N1CCN(c2cc(-n3cccc3)ncn2)CC1"
  data-value: -4.46
- compound: "CCc1nnc(CNC2CCN(c3ncnc4c(C)csc34)CC2)s1"
  data-value: -1.72

Could you now consider this next compound?
Input: What value of cytotoxicity at 70.5 h has been recorded for this entry: CC(=O)N[C@@H]1CN(C(=O)c2ccncc2)C[C@H]1c1ccc(C)cc1
Output: -3.8

====

Assay: Human HepG2 cell viability assay in 384 well format
Type: toxicity, cell-based
Set-up: dose 125 nL, time 70.5 hour; concentration not given beside the values
Settings: HepG2 cells, read-out: Inhibition
measurement-name: cytotoxicity at 70.5 h (%)
Answers are plain numbers, in %.

Hi! Can you tell me cytotoxicity at 70.5 h for each of these compounds?
1. Cc1nccn1CCN(C)C(=O)C1CCN(C(=O)C2CCCC2)CC1
2. O=S(=O)(CC1CCCO1)Nc1cc(Cl)ccc1-n1cccn1 (stereo unspecified)
3. N#CCCN(CCC#N)C(=O)c1ccc(COc2ccccc2C#N)o1
4. O=S1(=O)CCC(c2nnc(-c3cnc4onc(C5CCCC5)c4c3)o2)C1 (stereo unspecified)
5. CCc1ccc(CNC(=O)Nc2cc(C)on2)s1
6. C1CCCN(C2CCCN(Cc3noc(C4CC4)n3)C2)CC1 (stereo unspecified)

Output:
1: 8.88; 2: 2.79; 3: 6.22; 4: 20.9; 5: -9.95; 6: -1.66

Hi! Can you tell me cytotoxicity at 70.5 h for each of these compounds?
1. CC(C)c1nc(CN(C)C(=O)CCS(=O)(=O)c2ccccc2)no1
2. Cn1cnc(S(=O)(=O)N2CCCc3cc(F)cc(F)c32)c1Cl
3. Cc1ccccc1CNC(=O)CNc1ccc(OC2CCOC2)cc1 (stereo unspecified)
4. Cc1nccc(N2CC[C@@H]3[C@@H](CCC(=O)N3CCc3ccccc3)C2)n1

Output:
[-8.68, 10.5, -13.6, -6.49]

Input: What value of cytotoxicity at 70.5 h has been recorded for this entry: CC(c1nccs1)N(C)Cc1ccc(CCC(C)(C)O)cc1 (stereo unspecified)
Output: 0.285

====

Assay: Human HepG2 cell viability assay in 384 well format
Type: toxicity, cell-based
Parameters: dose 125 nL, time 70.5 hour; concentration not given beside the values
Settings: HepG2 cells, read-out: Inhibition
measurement-name: cytotoxicity at 70.5 h (%)
Answers are plain numbers, in %.

Use the examples below as a reference point.
- compound: "CC1CCCCN1Cc1nc(Cc2ccccc2)no1 (centres undefined)"
  cytotoxicity at 70.5 h / %: -10.4
- compound: "O=C1CC2(CCN(Cc3cccnc3)C2)CN1c1cccc(F)c1 (centres undefined)"
  cytotoxicity at 70.5 h / %: -16.5
- compound: "Cc1nsc(N2CCCN(c3nc(C4CC4)ns3)CC2)n1"
  cytotoxicity at 70.5 h / %: 1.36
- compound: "c1cncc(OC[C@]23COC[C@H]2CN(C2CCOCC2)C3)c1"
  cytotoxicity at 70.5 h / %: -1.59
- compound: "CCn1nc(C)cc1C(=O)OCCNc1ncnc2ccccc12"
  cytotoxicity at 70.5 h / %: 27.6
- compound: "O=C(c1nc(COc2ccc3c(c2)OCO3)no1)N1CCCC1"
  cytotoxicity at 70.5 h / %: -3.83
- compound: "Cc1cccc(CN2C(=O)CC[C@@H]3[C@H]2CCN3C(=O)c2ccsc2)n1"
  cytotoxicity at 70.5 h / %: -12.3
- compound: "CSc1nccc(N2CCCC(c3nccn3C(C)C)C2)n1 (centres undefined)"
  cytotoxicity at 70.5 h / %: 17.1
- compound: "O=C(CN1CCOC(Cn2cccn2)C1)Nc1cccnc1 (centres undefined)"
  cytotoxicity at 70.5 h / %: 31.9
- compound: "CC1CCCN(C(=O)c2nnn(-c3ccc(C(F)(F)F)cc3)n2)C1 (centres undefined)"
  cytotoxicity at 70.5 h / %: 1.4

Hi! Can you tell me cytotoxicity at 70.5 h for each of these compounds?
1. COC(=O)N1CCC(Nc2ccc(C#N)c(Cl)c2)C1 (centres undefined)
2. COCCN(Cc1noc(-c2ccc(OC)cc2)n1)C1CC1
3. CCN(CC)C(=O)CCNC(=O)c1ccccc1N1CCOCC1
4. CN(Cc1ccncc1)C(CO)c1cccc(Br)c1 (centres undefined)
5. CN(C)C(=O)COCC1CN(Cc2ccsc2)Cc2nccn2C1 (centres undefined)
6. COCCN(Cc1ccc(F)cc1Cl)C(=O)c1ccncc1
7. CCN(C(=O)C(C)S(=O)(=O)Cc1nc(C)no1)c1ccccc1 (centres undefined)

Output:
[1.68, -0.841, 23.2, -21, -7.22, -6.63, -96.7]

Hi! Can you tell me cytotoxicity at 70.5 h for each of these compounds?
1. Nc1ncccc1C(=O)NCc1cccc(Cl)c1
2. CC1CCCN(C(=O)CCNS(=O)(=O)c2cccnc2)C1 (centres undefined)
3. Cc1ccc2oc([C@H]3CCN(Cc4ccccc4)C3)nc2c1

Output:
1: -8.22; 2: 1.82; 3: 5.17

Hi! Can you tell me cytotoxicity at 70.5 h for each of these compounds?
1. Fc1ccccc1CN1C[C@@H]2OCCN(c3ncccn3)[C@@H]2C1
2. CN(C)c1nccc(N2CCO[C@H]3CN(Cc4ccco4)C[C@H]32)n1
3. Cc1nc2c(c(=O)[nH]1)CN(C(=O)CC[C@@H]1CCCN3CCCC[C@H]13)C2
4. C=Cn1cc(CN2CCc3nc(-c4cccnc4)nc(O)c3C2)c(C)n1

Output:
1: -13.2; 2: 3.82; 3: 24.5; 4: -3.49

====

What cytotoxicity at 70.5 h was measured for each of the following?
Assay: Human HepG2 cell viability assay in 384 well format
Assay type: toxicity, cell-based
Design: dose 125 nL, time 70.5 hour; concentration not given beside the values
Settings: HepG2 cells, read-out: Inhibition
Give bare numbers, in %.

Use the examples below as a reference point.
- compound: "O=C(O)CSc1nnc(-c2ccn[nH]2)n1-c1ccccc1Cl"
  measurement-name: "cytotoxicity at 70.5 h"
  data-value: -6.93
- compound: "CN(C)C(=O)CN1CCCCC1c1nc(N)ncc1-c1ccc(Cl)cc1 (centres undefined)"
  measurement-name: "cytotoxicity at 70.5 h"
  data-value: -15.8
- compound: "O=C(c1csc(-c2ccccn2)n1)N1CCCC1Cn1cccn1 (centres undefined)"
  measurement-name: "cytotoxicity at 70.5 h"
  data-value: -2.56
- compound: "Cc1nn(Cc2ccc(C(=O)NC3CCS(=O)(=O)C3)cc2)c(C)c1Br (centres undefined)"
  measurement-name: "cytotoxicity at 70.5 h"
  data-value: 3.3
- compound: "Cn1cccc1C(O)CNC(=O)c1cccc(Cl)c1 (centres undefined)"
  measurement-name: "cytotoxicity at 70.5 h"
  data-value: -9.53

Hi! Can you tell me cytotoxicity at 70.5 h for each of these compounds?
1. CCOc1ccc(Cl)c(C(=O)NC(Cc2ccccc2)C(N)=O)n1 (centres undefined)
2. COCCC(=O)N1Cc2ccccc2OC2(CCOCC2)C1
3. CSc1ncccc1C(=O)N1C[C@H]2CC[C@@H]1CN(c1ncccn1)C2
4. O=C1CN(Cc2occc2C(=O)NCCc2ccc(F)cc2)CCN1

Output:
[-1.23, -0.482, -10.3, 2.4]

Hi! Can you tell me cytotoxicity at 70.5 h for each of these compounds?
1. c1cc(CN2CCCn3cnc(COCC4CC4)c3C2)co1
2. O=C1CCC2(CCCN(Cc3ccccc3F)C2)N1CC1CC1 (centres undefined)
3. COc1c(C2CCCN2C(=O)c2cncnc2C)c(C)nn1C (centres undefined)
4. Cc1ccc(CNC2CCCc3c2cnn3Cc2ccccc2)s1 (centres undefined)
5. O=C(CCC1CCN(Cc2ccncc2)CC1)Nc1ccccc1Cl

Output:
[-8.86, -2.34, 39.1, -8.41, 0.0549]

Hi! Can you tell me cytotoxicity at 70.5 h for each of these compounds?
1. CCN1CC[C@]2(CN(C(=O)[C@H]3CCCO3)C[C@H]2c2ccccc2)C1=O
2. COCC(NC1CCN(CC(C)C)CC1)c1ccnn1C (centres undefined)
3. O=C(c1cc(C2CCCC2)no1)N1CC(O)C1
4. O=C1NC(c2cnc(C3CCC3)s2)Nc2ccccc21 (centres undefined)

Output:
1. -1.85
2. -6.73
3. -3.97
4. -9.55

Hi! Can you tell me cytotoxicity at 70.5 h for each of these compounds?
1. Cc1cccc(NC(=O)[C@@H]2CCCN2Cc2cnc3ccccn23)n1
2. COC(=O)CCSc1nncn1-c1ccc(OC)nc1

Output:
1: 1.07; 2: 4.09

Where do these numbers come from? They come from ChEMBL document CHEMBL3507680.
